Hello, the source for this data is ChEMBL document CHEMBL4007448, in case you need it.

Field: IC50. Provide a value for each of the molecules that follow.
System: A549
measurement notes: Cytotoxicity against human A549 cells assessed as reduction in cell viability after 48 hrs by MTT assay
Format: functional, cell-based
test context: A549, 48 h

Task item: # query: IC50 of entry `C[C@H]1O[C@@H](O[C@H]2[C@H](O[C@H]3CC[C@@]4(C)[C@@H](CC[C@]5(C)[C@@H]4C/C(=N/O)[C@@H]4[C@@H]6CC(C)(C)CC[C@]6(C(=O)O)CC[C@]45C)[C@]3(C)CO)OC[C@H](O)[C@@H]2O)[C@H](O)[C@H](O)[C@H]1O`
Reply: > 100 µM

Task item: # query: IC50 of entry CC(=O)OC[C@@]1(C)[C@@H]2CC[C@]3(C)[C@H](CC(O)[C@]45OC(=O)[C@@]6(CCC(C)(C)C[C@H]64)CC[C@@]35C)[C@@]2(C)CC[C@@H]1O[C@@H]1OC[C@H](OC(C)=O)[C@H](OC(C)=O)[C@H]1O[C@@H]1O[C@H](C)[C@H](OC(C)=O)[C@@H](OC(C)=O)[C@H]1OC(C)=O (stereo partly drawn)
Reply: > 100 µM

Task item: # query: IC50 of entry `C[C@H]1O[C@@H](O[C@H]2[C@H](O[C@H]3CC[C@@]4(C)[C@@H](CC[C@]5(C)[C@@H]4CC=C4[C@@H]6CC(C)(C)CC[C@]6(C(=O)OCCCCO[N+](=O)[O-])CC[C@]45C)[C@]3(C)CO)OC[C@H](O)[C@@H]2O)[C@H](O)[C@H](O)[C@H]1O`
Reply: 84.5 µM

---

Field: IC50. Provide a value for each of the molecules that follow.
System: SMMC-7721
measurement notes: Cytotoxicity against human SMMC7721 cells assessed as reduction in cell viability after 48 hrs by MTT assay
Type: functional, cell-based
test context: SMMC-7721, 48 h
# output: bare number, implied unit µM

Task item: Please provide the recorded IC50 for `C[C@H]1O[C@@H](O[C@H]2[C@H](O[C@H]3CC[C@@]4(C)[C@@H](CC[C@]5(C)[C@@H]4C(=O)C=C4[C@@H]6CC(C)(C)CC[C@]6(C(=O)O)CC[C@]45C)[C@]3(C)CO)OC[C@H](O)[C@@H]2O)[C@H](O)[C@H](O)[C@H]1O` , tested on SMMC-7721.
Reply: 58.8

Task item: Please provide the recorded IC50 for `C[C@H]1O[C@@H](O[C@H]2[C@H](O[C@H]3CC[C@@]4(C)[C@@H](CC[C@]5(C)[C@@H]4CC=C4[C@@H]6CC(C)(C)CC[C@]6(C(=O)OCCCCO[N+](=O)[O-])CC[C@]45C)[C@]3(C)CO)OC[C@H](O)[C@@H]2O)[C@H](O)[C@H](O)[C@H]1O` , tested on SMMC-7721.
Reply: 22.1

Task item: Please provide the recorded IC50 for `C[C@@H]1O[C@@H](O[C@H]2[C@H](O[C@H]3CC[C@@]4(C)[C@@H](CC[C@]5(C)[C@@H]4CC=C4[C@@H]6CC(C)(C)CC[C@]6(C(=O)O)CC[C@]45C)[C@]3(C)CO)OC[C@H](O)[C@@H]2O)[C@H](O)[C@@H](O)[C@H]1O` , tested on SMMC-7721.
Reply: 12.2

---

measurement notes: Hemolytic activity against New Zealand rabbit erythrocytes after 60 mins
Type: ADME, cell-based, Oryctolagus cuniculus, Erythrocyte
test context: read-out: HD50
Field: HC50 at 1 h. Provide a value for each of the compounds that follow.
# output: bare number, implied unit µM

Task item: # query: HC50 at 1 h of entry `C[C@H]1O[C@@H](O[C@H]2[C@H](O[C@H]3CC[C@@]4(C)[C@@H](CC[C@]5(C)[C@@H]4CC=C4[C@@H]6CC(C)(C)CC[C@]6(C(=O)NCCCC(=O)O)CC[C@]45C)[C@]3(C)CO)OC[C@H](O)[C@@H]2O)[C@H](O)[C@H](O)[C@H]1O`
Reply: 313

Task item: # query: HC50 at 1 h of entry `C[C@H]1O[C@@H](O[C@H]2[C@H](O[C@H]3CC[C@@]4(C)[C@@H](CC[C@]5(C)[C@@H]4CC=C4[C@@H]6CC(C)(C)CC[C@]6(C(=O)NCCCCCC(=O)O)CC[C@]45C)[C@]3(C)CO)OC[C@H](O)[C@@H]2O)[C@H](O)[C@H](O)[C@H]1O`
Reply: 393
